Data provenance is PubChem BioAssay (NCI).

Tested on: HCT-15 colon
Assay procedure: NCI tumour cell line growth inhibition, 48 h
Test readout: TGI

Check out these entries, answers already filled in.
- Smiles input: "O=S(=O)(O)c1ccc2c(N=Nc3c(O)ccc4ccccc34)cccc2c1"
  Measurement: "> 100 µM"
- Smiles input: "O=C(O)Cc1ccc(Oc2nc3ccccc3nc2-c2ccccc2)cc1"
  Measurement: "> 100 µM"
- Smiles input: "Nc1ccn([C@@H]2S[C@H](CO)[C@@H](O)[C@@H]2F)c(=O)n1"
  Measurement: "> 100 µM"
- Smiles input: "O=C1c2ccccc2/C=C\\C(c2ccccc2)=N/N1c1ccccc1Cl"
  Measurement: "> 100 µM"
- Smiles input: "c1ccc2c(c1)[O][Sn][O]2"
  Measurement: "> 150 µg/mL"

We now examine a further molecule.
Entry Cc1cc2c3c(c1)CCCN3CCC2 has what TGI?
> 10 µM

---

Measured TGI, listed per entry.
Test system: SNB-75 CNS
Assay procedure: NCI tumour cell line growth inhibition, 48 h
The reply should be a number in µM, with the unit left off.

- Smiles input: "Nc1c(-c2nc3ccccc3s2)[n+]([O-])c2ccccc2[n+]1[O-]"
  Tested on: "SNB-75 CNS"
  TGI [µM]: 76.5

Entry CCCCOCCOCCOC1=C(Cl)C(=O)c2c(O)ccc(O)c2C1=O has what TGI?
1.25

---

System: T-47D breast
Assay procedure: NCI tumour cell line growth inhibition, 48 h
Would you mind labelling by TGI? At or over 30 µM is Y, under is N.

// known answers, use as guide
- Compound: "CCOP(=O)(/C=C/n1cnc2c(=O)n(C(C)=O)c(N)nc21)OCC"
  Label: "Y"
- Compound: "Fc1ccc(C(OCCN2CC3CC2CN3)c2ccc(F)cc2)cc1 (configuration not stated)"
  Label: "Y"
- Compound: "CCOC(=O)C1=C(C)N(CC(C)C)C2(O)C(OC)CC(=O)C3C(=O)N(c4ccccc4)C(=O)C132 (configuration not stated)"
  Label: "Y"
- Compound: "Cc1ccc(C(=O)N2C/C(=C/c3ccccc3)C(=O)/C(=C/c3ccccc3)C2)cc1"
  Label: "Y"
- Compound: "CCOP(=O)(/C=C\\n1ccc(=O)[nH]c1=O)OCC"
  Label: "Y"
- Compound: "CCN(CC)C(=O)CCCCCn1c2ccccc2c2c3c(c4c5ccccc5[nH]c4c21)C(=O)N(O)C3=O"
  Label: "Y"
- Compound: "CC(C)C/C(=N\\NC(=O)c1ccncc1)c1cc(Cl)ccc1O"
  Label: "Y"
- Compound: "O=S(=O)(/N=C(\\NO)Nc1ccc(Cl)cc1)c1cc(S(=O)(=O)c2ccccc2)cs1"
  Label: "Y"
- Compound: "C=C(C)[C@@H]1CC[C@]2(C(=O)n3ccnc3)CC[C@]3(C)[C@H](CC[C@@H]4[C@@]5(C)CCCNC(C)(C)[C@@H]5CC[C@]43C)[C@@H]12"
  Label: "N"
- Compound: "Cc1ccc(O)cc1Nc1ccnc2cc(-c3ccccn3)ccc12"
  Label: "N"

API: above_or_equal(metric=TGI, cutoff=30 µM) for item Oc1ccc(-c2[nH]c3ccccc3c2-c2nc3ccccc3o2)cc1
N

API: above_or_equal(metric=TGI, cutoff=30 µM) for item Cc1ccc(NC(=O)c2ccc(NC3=C(Cl)C(=O)N(Cc4ccccc4)C3=O)cc2)cc1Cl
N

API: above_or_equal(metric=TGI, cutoff=30 µM) for item COc1ccc2c(C(=O)c3c(C)n(CCN4CCOCC4)c4ccccc34)cccc2c1
Y

API: above_or_equal(metric=TGI, cutoff=30 µM) for item CC(C)(CC1(C)NC(=O)NC1=O)OCc1ccccc1 (configuration not stated)
Y

API: above_or_equal(metric=TGI, cutoff=30 µM) for item CC(=O)Nc1sccc1S(=O)(=O)c1ccc(Cl)cc1
Y

API: above_or_equal(metric=TGI, cutoff=30 µM) for item CCOC(=O)n1c2ccccc2c(=O)n1CCO
Y

---

Tested on: U251 CNS
Assay procedure: NCI tumour cell line growth inhibition, 48 h
Test readout: TGI

Entry O=S(=O)(Cc1ccccc1)SCc1ccccc1 has what TGI?
66.2 µM

Entry Cn1c(=O)c(C(=O)NC23CC4CC(CC(C4)C2)C3)c(O)c2ccccc21 has what TGI?
59.7 µM

---

System: BT-549 breast
Assay procedure: NCI tumour cell line growth inhibition, 48 h
Test readout: TGI (µM)
The reply should be a number in µM, with the unit left off.

- Compound: "N#Cc1c(N)nc2n[nH]c(N)c2c1-c1ccccc1"
  Measurement: 40.2

Entry CC(=O)O[C@H]1C[C@H]2[C@@H]([C@H](OC(C)=O)C[C@@H]3CC4(CC[C@@]32C)OOC2(CCCCC2)OO4)[C@@H]2CC[C@H]([C@H](C)CCC(=O)O)[C@@]12C has what TGI?
17.3

Entry CCN(CC)C(=S)SSCCO has what TGI?
31.9

Entry CC/C(=C(/c1ccc(/C=C/C(=O)O)cc1)c1ccc2[nH]ncc2c1)c1ccc(F)cc1Cl has what TGI?
22.7

Entry CC(=O)N1c2ccccc2[C@H]2CCc3c([nH]c4ccccc34)[C@H]21 has what TGI?
30

Entry CCCCOc1ccc(S(=O)(=O)/N=C(\N)Nc2ccc(Cl)cc2)cc1 has what TGI?
32.5

Entry COc1cc2c(cc1OC)C(SC)C(=O)N(Cc1cccc(OC)c1OC)CC2 (stereo not given) has what TGI?
33.2

Entry CN(C)CCS(=O)(=O)Nc1cc(-c2ccc3ncnc(Nc4ccc(F)c(Cl)c4)c3c2)cnc1Cl has what TGI?
1.38

---

System: A549 NSCLC
Assay procedure: NCI tumour cell line growth inhibition, 48 h
Test readout: TGI

- Compound: "O=c1[nH]nc(Cc2ccccc2)n1C1CC1"
  Measurement: "> 100 µM"
- Compound: "CC(C)=CC(=O)CC(=O)C(=O)NCCNC(=O)C(=O)CC(=O)C=C(C)C"
  Measurement: "> 50 µM"
- Compound: "C=CC(C)(O)CCC1C(=C)C(O)CC2C(C)(C)CCCC12C (stereo unspecified)"
  Measurement: "54.9 µM"
- Compound: "CCOC(=O)C1=C(C)N(Cc2ccc(Cl)cc2Cl)[C@]2(C#N)C(O)=C(Cl)C(Cl)=C(O)[C@]12C#N"
  Measurement: "> 100 µM"
- Compound: "COc1cccc(N2C(=O)C3CC(CC(C)(C)C)c4c([nH]c5ccccc45)C3C2=O)c1 (stereo unspecified)"
  Measurement: "> 10 µM"

Entry O=C(/C=C/c1cccs1)c1ccc([N+](=O)[O-])cc1 has what TGI?
> 100 µM

Entry Cc1cc(/N=C/c2ccc(Cl)cc2)n(-c2ccccc2)n1 has what TGI?
> 100 µM

Entry CCN(CC)Cc1cc(Nc2cc(C(F)(F)F)c(C#N)c3nc4ccccc4n23)ccc1O has what TGI?
12.5 µM

Entry c1csc(C(NC2=NCCO2)C2CC2)c1 (stereo unspecified) has what TGI?
> 100 µM

Entry O=C(NN1C(=O)C(Cl)C1c1c(O)ccc2ccccc12)c1ccccc1O (stereo unspecified) has what TGI?
> 100 µM

Entry CCCCC1Cc2cc(OC)ccc2-c2n1c1cc(OC)ccc1[n+]2C (stereo unspecified) (tested in a mixture with another compound) has what TGI?
> 45.7 µM

Entry C1=C(c2ccccc2)C(OC2Oc3ccccc3C=C2c2ccccc2)Oc2ccccc21 (stereo unspecified) has what TGI?
> 100 µM

Entry Nc1c(C(=O)Nc2ccccc2O)[n+]([O-])c2ccccc2[n+]1[O-] has what TGI?
> 100 µM

Entry Cc1cc(C)c(S(=O)(=O)N(CCCN)OCCCN)c(C)c1 has what TGI?
> 100 µM

Entry Cc1cc(-c2ccco2)cc(C)c1/C=C/c1cncc(-c2nn[nH]n2)c1 has what TGI?
> 25 µM

Entry Nc1ccn([C@@H]2S[C@H](CO)[C@@H](O)[C@@H]2F)c(=O)n1 has what TGI?
> 100 µM

Entry O=C(Nc1cccc(-n2cc(-c3ccncc3)c(-c3ccc(O)c(Cl)c3)n2)c1)Nc1ccc(Cl)c(Cl)c1 has what TGI?
7.27 µM

Entry CCOc1cc2c(cc1O)CC[C@@H]1[C@@H]2CC[C@]2(C)[C@@H](O)CC[C@@H]12 has what TGI?
48.1 µM

Entry CC(C)=NNc1ncnc2nc[nH]c12 has what TGI?
> 72.4 µM

Entry C/C(=N\Nc1nc2ccccc2n1C)c1ccc2ccccc2n1 has what TGI?
16.1 µM

Entry O=C([O-])C1([n+]2c(-c3ccccc3)cc(-c3ccccc3)cc2-c2ccccc2)CC1 has what TGI?
> 100 µM

---

Measured TGI, listed per entry.
Test system: MOLT-4 leukemia
Assay procedure: NCI tumour cell line growth inhibition, 48 h

Check out these entries, answers already filled in.
- Compound: "CC1=C(C(=O)CC(=O)C(=O)Nc2ccccc2C)Sc2ccccc2N1"
  Test readout: "TGI"
  Measurement: "> 100 µM"
- Compound: "O=c1c2ccccc2n2cnc3ccc(NCCNCCO)c1c32"
  Test readout: "TGI"
  Measurement: "10.3 µM"
- Compound: "Fc1ccc(C(OCCN2CC3CC2CN3)c2ccc(F)cc2)cc1 (stereo unspecified)"
  Test readout: "TGI"
  Measurement: "> 100 µM"
- Compound: "COC1(c2ccccc2)NC(=S)NN=C1c1ccccc1 (stereo unspecified)"
  Test readout: "TGI"
  Measurement: "> 100 µM"

Entry Nc1c(C(=O)c2ccccc2)nnc2ccccc12 has what TGI?
> 100 µM

Entry Cc1cn2c(/C=C3/C(=O)Nc4ccc(C(=O)O)cc43)c(C)nc2s1 has what TGI?
> 100 µM
